biological target: Receptor tyrosine-protein kinase erbB-2 (Homo sapiens); assay: reducers of endogenous Her2 protein level, primary screen, SKBR3 breast tumor cells, AlphaScreen, ATP viability (AID 461); settings: 18-24 h, at 10 µM, stronger effect = lower value;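 also: lower value means less Her2 protein in the cells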
Could you please report measured Her2 level for the items listed next?
Answers are plain numbers, in %.

Please state Her2 level for every compound in the list that follows.
1. Cn1c(SCC(N)=O)nnc1C1CCN(S(=O)(=O)c2ccccc2C(F)(F)F)CC1
2. CCOc1ccc(OCc2ccc(C(=O)Nc3cccc(C)n3)o2)cc1
3. C=CCNC(=O)CN(c1cccc(Br)c1)S(C)(=O)=O
4. COc1ccccc1NC(=O)CSc1nnc(-c2ccncc2)n1CC1CCCO1 (configuration not stated)
5. O=C1C(Cl)=C(N2CCCCC2)C(=O)N1c1ccccc1Cl
6. O=c1c2c3c(sc2nc2sc(C4CC4)nn12)CCCC3
7. Cc1cc(C(=O)OCCO)c(C#N)c(N)n1
8. Cn1cc(Br)c(C(=O)NC2CCCCC2)n1

Result:
1: 97.5; 2: 85; 3: 106; 4: 91; 5: 79.5; 6: 92.5; 7: 90.5; 8: 112

Provide reported Her2 level for each item, in the same order as listed.
1. CCOC(=O)c1nnn(CC(=O)Nc2cccc(F)c2)c1C(=O)OCC
2. O=C(N1CCCCCC1)N1CCN(C(=O)N2CCOCC2)CC1
3. Cc1ccc(C2Nc3ccccc3-c3nc4ccccc4n32)o1 (configuration not stated)
4. S=c1[nH]nc(Cc2ccccc2)n1-c1ccccc1

Result:
1. 95
2. 104
3. 89.5
4. 112
